# ASSAY_OVERVIEW: Pharmacokinetics and tissue distribution in rats
# Type: in vivo, rat
# MEASUREMENT_CONTEXT: male, Wistar, serum, ip; rat, 0.3 mg/kg i.p., mean ± SD; read-out: AUC0-t, serum (converted)
READOUT_TYPE: AUC(0-t) (ng·h/mL)
Numbers only, in ng·h/mL.

- COMPOUND: "CCC(Oc1cccc(Cl)c1Cl)c1nc(N)nc(N2CCN(C)CC2)n1 (racemic)"
  REPORTED: 7.56

Turning now to a further compound:
Respond only with AUC(0-t) recorded for CCC(Oc1ccccc1)c1nc(N)nc(N2CCN(C)CC2)n1 (racemic)
7.07

* * *

# ASSAY_OVERVIEW: PAMPA permeability
# Type: in vitro ADME
# MEASUREMENT_CONTEXT: PBS pH 7.4, 5 h, triplicate, read-out: Pe (PAMPA permeability coefficient) ± SD
Exercise: for every item that follows, state its recorded Papp at 5 h.
# answer = value followed by unit

- COMPOUND: "CCC(Oc1ccccc1)c1nc(N)nc(N2CCN(C)CC2)n1 (racemic) [Compound 3]"
  Papp at 5 h: "15.1 ×10⁻⁶ cm/s"

Now examine the next entry.
Give Papp at 5 h for the following compound: CCC(Oc1cccc(Cl)c1Cl)c1nc(N)nc(N2CCN(C)CC2)n1 (racemic) [Compound 2]
20.5 ×10⁻⁶ cm/s

* * *

Please go through the items and note down their Tmax.
# ASSAY_OVERVIEW: Pharmacokinetics and tissue distribution in rats
# Format: in vivo, rat
# MEASUREMENT_CONTEXT: male, Wistar, rat, kidneys, ip, 0.3 mg/kg, rat, 0.3 mg/kg i.p.; read-out: Tmax, kidneys (converted)
Answers are plain numbers, in min.

- COMPOUND: "CCC(Oc1ccccc1)c1nc(N)nc(N2CCN(C)CC2)n1 (racemic)"
  READOUT_TYPE: "Tmax"
  UNITS_SYMBOL: "min"
  REPORTED: 15

Then this compound:
Identify measured Tmax associated with CCC(Oc1cccc(Cl)c1Cl)c1nc(N)nc(N2CCN(C)CC2)n1 (racemic)
15

* * *

# ASSAY_OVERVIEW: Pharmacokinetics and tissue distribution in rats
# Type: in vivo, rat
# MEASUREMENT_CONTEXT: male, Wistar, rat, heart, ip, 0.3 mg/kg, rat, 0.3 mg/kg i.p.; read-out: Tmax, heart (converted)
READOUT_TYPE: Tmax (min)
Answers are plain numbers, in min.

- COMPOUND: "CCC(Oc1cccc(Cl)c1Cl)c1nc(N)nc(N2CCN(C)CC2)n1 (racemic)"
  Tmax [min]: 5

Now take the following compound into account.
Retrieve Tmax measured for CCC(Oc1ccccc1)c1nc(N)nc(N2CCN(C)CC2)n1 (racemic) and print it.
5

* * *

# ASSAY_OVERVIEW: Pharmacokinetics and tissue distribution in rats
# Assay type: in vivo, rat
# MEASUREMENT_CONTEXT: male, Wistar, rat, serum, ip, 0.3 mg/kg, rat, 0.3 mg/kg i.p.; read-out: t1/2λz, serum
Consider the following compounds; for each one, report its half-life.
Answer shape: numeric part, then the unit.

- COMPOUND: "CCC(Oc1cccc(Cl)c1Cl)c1nc(N)nc(N2CCN(C)CC2)n1 (racemic) [Compound 2]"
  half-life: "1.94 h"

Given CCC(Oc1ccccc1)c1nc(N)nc(N2CCN(C)CC2)n1 (racemic) [Compound 3] , respond with its half-life.
1.28 h

* * *

# ASSAY_OVERVIEW: Pharmacokinetics and tissue distribution in rats
# Type: in vivo, rat
# MEASUREMENT_CONTEXT: male, Wistar, serum, ip; rat, 0.3 mg/kg i.p., mean ± SD
READOUT_TYPE: Cmax (ng/mL)
One number for each entry, in ng/mL.

- MOLECULE: "CCC(Oc1cccc(Cl)c1Cl)c1nc(N)nc(N2CCN(C)CC2)n1 (racemic)"
  REPORTED: 5.2

Would you kindly look at the next entry?
Return Cmax (reported value) for this molecule: CCC(Oc1ccccc1)c1nc(N)nc(N2CCN(C)CC2)n1 (racemic)
6.32

* * *

# ASSAY_OVERVIEW: Pharmacokinetics and tissue distribution in rats
# Format: in vivo, rat
# MEASUREMENT_CONTEXT: male, Wistar, rat, kidneys (vs serum), intraperitoneal, 0.3 mg/kg, AUC0-t tissue / AUC0-t serum; read-out: Kp, kidneys
READOUT_TYPE: Kp
Give bare numbers.

- COMPOUND: "CCC(Oc1cccc(Cl)c1Cl)c1nc(N)nc(N2CCN(C)CC2)n1 (racemic)"
  Kp: 16.5

Assign Kp to the following record: CCC(Oc1ccccc1)c1nc(N)nc(N2CCN(C)CC2)n1 (racemic)
6.03

* * *

Assignment: determine reported Papp B→A at 2 h, 10 µM for the given compounds.
# ASSAY_OVERVIEW: Bi-directional Caco-2 permeability assay
# Format: in vitro ADME
# MEASUREMENT_CONTEXT: human, pH 7.4, Caco-2, 10 µM, triplicate
Answers are plain numbers, in ×10⁻⁶ cm/s.

Reference set, count: 2
- COMPOUND: "CCC(Oc1ccccc1)c1nc(N)nc(N2CCN(C)CC2)n1 (racemic) [Compound 3]"
  REPORTED: 10.1
- COMPOUND: "CCC(Oc1cc(Cl)ccc1Cl)c1nc(N)nc(N2CCN(C)CC2)n1 (racemic) [Compound 1]"
  REPORTED: 22.2

Let us move to another entry and its Papp B→A at 2 h, 10 µM.
Fill in reported Papp B→A at 2 h, 10 µM for this entry: CCC(Oc1cccc(Cl)c1Cl)c1nc(N)nc(N2CCN(C)CC2)n1 (racemic) [Compound 2]
21.1

* * *

# ASSAY_OVERVIEW: Pharmacokinetics and tissue distribution in rats
# Format: in vivo, rat
# MEASUREMENT_CONTEXT: male, Wistar, rat, lungs, ip, 0.3 mg/kg, rat, 0.3 mg/kg i.p.; read-out: Tmax, lungs (converted)
READOUT_TYPE: Tmax (min)
Give bare numbers, in min.

- COMPOUND: "CCC(Oc1ccccc1)c1nc(N)nc(N2CCN(C)CC2)n1 (racemic)"
  READOUT_TYPE: "Tmax"
  REPORTED: 5

Please look at the following compound next.
Respond only with Tmax recorded for CCC(Oc1cccc(Cl)c1Cl)c1nc(N)nc(N2CCN(C)CC2)n1 (racemic)
5

* * *

# ASSAY_OVERVIEW: Pharmacokinetics and tissue distribution in rats
# Format: in vivo, rat
# MEASUREMENT_CONTEXT: male, Wistar, serum, ip; rat, 0.3 mg/kg i.p., mean ± SD; read-out: AUC0-∞, serum (converted)
READOUT_TYPE: AUC(0-inf) (ng·h/mL)
Numbers only, in ng·h/mL.

- COMPOUND: "CCC(Oc1cccc(Cl)c1Cl)c1nc(N)nc(N2CCN(C)CC2)n1 (racemic) [Compound 2]"
  AUC(0-inf) [ng·h/mL]: 8.85

Shift focus to the following entry.
Report measured AUC(0-inf); entry is CCC(Oc1ccccc1)c1nc(N)nc(N2CCN(C)CC2)n1 (racemic) [Compound 3]
8.53

* * *

So I've got a bunch of compounds here, and I need their half-life values.
# ASSAY_OVERVIEW: Pharmacokinetics and tissue distribution in rats
# Type: in vivo, rat
# MEASUREMENT_CONTEXT: male, Wistar, rat, brain, ip, 0.3 mg/kg, rat, 0.3 mg/kg i.p.; read-out: elimination half-life, brain tissue
One number for each entry, in h.

- COMPOUND: "CCC(Oc1cccc(Cl)c1Cl)c1nc(N)nc(N2CCN(C)CC2)n1 (racemic) [Compound 2]"
  UNITS_SYMBOL: "h"
  half-life: 2.48

Now look at this entry.
Specify reported half-life for the compound shown: CCC(Oc1ccccc1)c1nc(N)nc(N2CCN(C)CC2)n1 (racemic) [Compound 3]
1.87

* * *

Answer each item with its documented Kp.
# ASSAY_OVERVIEW: Pharmacokinetics and tissue distribution in rats
# Type: in vivo, rat
# MEASUREMENT_CONTEXT: male, Wistar, rat, heart / serum, intraperitoneal, 0.3 mg/kg, AUC0-t tissue / AUC0-t serum; read-out: Kp, heart
# Procedure: To assess pharmacokinetic profile and tissue penetration of 2 and 3, the male Wistar rats were a single intraperitoneal (i.p.) injected with these compounds dissolved in tween (vehicle volume 1 mL/kg) at a dose of 0.3 mg/kg, determined in behavioral studies. […] Moreover, five tissues (i.e., brain, heart, lungs, kidneys and liver) were harvested, rinsed with cold saline, and the wet weights determined. […]
One number for each entry.

- MOLECULE: "CCC(Oc1ccccc1)c1nc(N)nc(N2CCN(C)CC2)n1 (racemic)"
  Kp: 2.49

API: the following record is the query input.
Report Kp for CCC(Oc1cccc(Cl)c1Cl)c1nc(N)nc(N2CCN(C)CC2)n1 (racemic)
2.3

* * *

# ASSAY_OVERVIEW: Pharmacokinetics and tissue distribution in rats
# Type: in vivo, rat
# MEASUREMENT_CONTEXT: male, Wistar, rat, liver (vs serum), intraperitoneal, 0.3 mg/kg, AUC0-t tissue / AUC0-t serum; read-out: Kp, liver
# Method: To assess pharmacokinetic profile and tissue penetration of 2 and 3, the male Wistar rats were a single intraperitoneal (i.p.) injected with these compounds dissolved in tween (vehicle volume 1 mL/kg) at a dose of 0.3 mg/kg, determined in behavioral studies. […] Moreover, five tissues (i.e., brain, heart, lungs, kidneys and liver) were harvested, rinsed with cold saline, and the wet weights determined. […]
READOUT_TYPE: Kp
Answers are plain numbers.

- MOLECULE: "CCC(Oc1ccccc1)c1nc(N)nc(N2CCN(C)CC2)n1 (racemic)"
  REPORTED: 10.5

Provide only the value of recorded Kp for CCC(Oc1cccc(Cl)c1Cl)c1nc(N)nc(N2CCN(C)CC2)n1 (racemic)
14.4
